Data provenance is the NIST ThermoML archive (doi:10.1021/je900954y).

# log10 viscosity per record follows
conditions: 303.15 K; 101 kPa; Liquid
Quick note: numbers are log10 of viscosity, with mPa·s as the unit.

Some solved cases for reference:
Please fill in: log10 viscosity reported for CCC(C)O (stereo not given) [butan-2-ol] = 0.40

Please fill in: log10 viscosity reported for CCCCCCO [hexan-1-ol] = 0.60

Please fill in: log10 viscosity reported for CC(O)CO (stereo not given) [1,2-propanediol] = 1.53

Please fill in: log10 viscosity reported for OCCO [1,2-ethanediol] = 1.10

Attention now shifts to the item below.
Please fill in: log10 viscosity reported for CCCCCCCO [heptan-1-ol] = 0.70
